Where these numbers come from: PubChem BioAssay (NCI)

System: T-47D breast
Assay: NCI tumour cell line growth inhibition, 48 h
RECORDED METRIC: TGI

For C=CC[C@]12C=C(OC)[C@@H](O)[C@](OC)(C(c3cc(OC)c4c(c3)OCO4)[C@H]1C)[C@H]2OC(C)=O (stereo partly drawn) the compound record lists TGI as > 100 µM

For COc1cc(OC)c(C2c3cc4c(cc3OC(N3CCCC3)C2C)OCO4)c(OC)c1 (stereo not drawn) the compound record lists TGI as > 100 µM

For O=C(O)C1C(Br)(c2ccccc2)C1(Br)c1ccccc1 (stereo not drawn) the compound record lists TGI as > 100 µM

* * *

Tested on: SF-295 CNS
Experiment: NCI tumour cell line growth inhibition, 48 h; in the data active means GI50 below about 0.43 µM; inactive means the rest
Respond only with the outcome that fits, drawn from y (active), n (inactive)

Problem: For this compound, state the assay outcome: "COc1ccc(CCN2COc3c([C@@H](C)CCC=C(C)C)ccc(C)c3C2)cc1OC"
Solution: n

Problem: For this compound, state the assay outcome: CC1=C(C(=O)Nc2ccc(F)c(Cl)c2)C(c2cccc(O)c2)NC(=O)N1 (configuration not stated)
Solution: n

Problem: For this compound, state the assay outcome: "Cc1[nH]c2ccccc2c(=O)c1CC=C(Cl)Cl"
Solution: n

Problem: For this compound, state the assay outcome: "C[C@]12CC[C@@H]3c4cc(OCC(F)(F)F)c(O)cc4/C(=N/O)C[C@H]3[C@@H]1CC[C@@H]2O"
Solution: y

Problem: For this compound, state the assay outcome: "COc1cccc(C#Cc2ccccc2C#CCCCCO)c1"
Solution: n

Problem: For this compound, state the assay outcome: "CCn1c(SCc2ccc(C)cc2)nnc1-c1nn(-c2ccc(Cl)cc2Cl)c(-c2ccc(Cl)cc2)c1C"
Solution: n

Problem: For this compound, state the assay outcome: "CC(=O)N[C@H]1CSSC[C@@H](C(N)=O)NC(=O)[C@H](C(C)C)NC(=O)[C@H](C)NC(=O)[C@H](Cc2cnc[nH]2)NC1=O"
Solution: n

* * *

Test system: OVCAR-4 ovarian
Experiment: NCI tumour cell line growth inhibition, 48 h
RECORDED METRIC: TGI

For "O=C1c2cccnc2-c2nccc3c2c1nc1cc(Br)ccc13" the compound record lists TGI as 0.563 µM

For COc1ccc(C2OC(c3ccncc3)=NN2C)cc1OC (stereo unspecified) the compound record lists TGI as > 100 µM

For NC(CCC(=O)NC(CSCC1C(=O)Nc2ccccc21)C(=O)NCC(=O)O)C(=O)O (stereo unspecified) the compound record lists TGI as > 22.2 µM

For COc1ccc2nc(NC(=O)C(=O)C(C#N)c3ccc([N+](=O)[O-])cc3)sc2c1 (stereo unspecified) the compound record lists TGI as > 100 µM

For O=C1NC(=O)C(CC2CCCCCCCCCCC2=O)C(=O)N1 (stereo unspecified) the compound record lists TGI as > 100 µM

For "O=C1[C@@H]2C(c3ccccc3F)=NO[C@@H]2C(=O)N1c1ccc(Cc2ccc(N3C(=O)[C@H]4C(c5ccccc5F)=NO[C@H]4C3=O)cc2)cc1" the compound record lists TGI as > 100 µM

* * *

System: MDA-MB-231 breast
Assay: NCI tumour cell line growth inhibition, 48 h
RECORDED METRIC: TGI

For CC1=C(C(=O)Nc2ccc(F)c(Cl)c2)C(c2cccc(O)c2)NC(=O)N1 (stereo unspecified) the molecule record lists TGI as > 100 µM

For "[N-]=[N+]=NC1=C(c2ccccn2)C(=O)c2cccc3cccc1c23" the molecule record lists TGI as > 100 µM

For "CC(=O)[C@@]1(O)CC[C@H]2[C@@H]3C[C@H](C)C4=CC(=O)C=C[C@]4(C)[C@@]3(F)[C@@H](O)C[C@@]21C" the molecule record lists TGI as > 100 µM

For C=CCOc1ccc(C2C(C(=O)OCC)C(=O)CC(C)(O)C2C(=O)OCC)cc1OC (stereo unspecified) the molecule record lists TGI as > 100 µM

For "Nc1ccc(S(=O)(=O)Nc2nccs2)cc1" the molecule record lists TGI as > 100 µM

For "COc1ccc(/C=C/C(=O)C(CC2CCC2)C(=O)/C=C/c2ccc(OC)c(OC)c2)cc1OC" the molecule record lists TGI as > 100 µM

For C=CC[C@]12C=C(OC)[C@@H](O)[C@](OC)(C(c3cc(OC)c4c(c3)OCO4)[C@H]1C)[C@H]2OC(C)=O (stereo partly specified) the molecule record lists TGI as > 100 µM

For "CC(C)=CCNc1ncnc2c1ncn2CCC#N" the molecule record lists TGI as > 100 µM

For CN1C2CCC1CC(C)(O)C2 (stereo unspecified) the molecule record lists TGI as > 100 µM

For "CCSc1nc(SCC)c2cn[nH]c2n1" the molecule record lists TGI as > 100 µM

For Cc1ccc(-c2nc3ccc(Cl)cc3c(=O)n2N2C(=O)CSC2c2ccccc2Cl)cc1 (stereo unspecified) the molecule record lists TGI as > 100 µM

For "COc1cc2[nH]c(C(=O)c3cc(OC)c(OC)c(OC)c3)c(N)c2cc1C#CC1CC1" the molecule record lists TGI as > 100 µM

For C=C(Cl)C(C)(Cl)CCC(Br)C(C)(C)Cl (stereo unspecified) the molecule record lists TGI as 28.7 µM

For "Cc1cc(NCc2ccccc2)c2ccccc2[n+]1CCCCCCCCCC[n+]1c(C)cc(NCc2ccccc2)c2ccccc21" the molecule record lists TGI as 1.74 µM

For "C[C@H](O)C(=O)N1CCC(CCn2c(Sc3cc4c(cc3Br)OCO4)nc3c(N)ncnc32)CC1" the molecule record lists TGI as 31.9 µM

For "CC(C)NC(=O)OCCN=c1c2ccccc2ccc2ccccc12" the molecule record lists TGI as > 100 µM

For Nc1ccn(C2CCC(CO)O2)c(=O)n1 (stereo unspecified) the molecule record lists TGI as > 1000 µM

For O=C1CSC(c2ccc(Cl)cc2Cl)N1c1ccc(F)cc1 (stereo unspecified) the molecule record lists TGI as 30.4 µM

For "O=c1cccc(C#CC#CC2=CCCCC2)o1" the molecule record lists TGI as 5.3 µM

For CC1=NNC(=O)C1C(CC(=O)c1c[nH]c2ccccc12)C(=O)O (stereo unspecified) the molecule record lists TGI as > 100 µM

For "CC(C)(C)OC(=O)NCCCNC1(c2cc3ccccc3s2)CCCCC1" the molecule record lists TGI as 40.1 µM

For "O=C1Nc2ccc(F)cc2/C1=C/c1ccc[nH]1" the molecule record lists TGI as > 25 µM

For "C#C[C@]1(O)CC[C@H]2[C@@H]3CCC4=C/C(=N/OC(=O)c5cccc6c(=O)c7ccccc7[nH]c56)CC[C@@H]4[C@H]3CC[C@@]21C" the molecule record lists TGI as > 100 µM

For "Cc1ncc(CCCN(C)C)cc1Nc1ncc2c(n1)-c1ccc(C(F)(F)F)cc1NC(=S)C2" the molecule record lists TGI as 0.302 µM

For "CCOC(=O)NC(Nc1ccc([N+](=O)[O-])cc1)(C(F)(F)F)C(F)(F)F" the molecule record lists TGI as > 100 µM

For "CC(=O)O[C@H]1CC[C@@]2(C)C(=CC[C@H]3[C@@H]4C[C@H](N5CCOCC5)[C@H](OC(C)=O)[C@@]4(C)CC[C@@H]32)C1" the molecule record lists TGI as > 100 µM

* * *

Tested on: MCF7 breast
Experiment: NCI tumour cell line growth inhibition, 48 h
RECORDED METRIC: TGI

For Cc1ccc2c(c1)C(=O)C1(C2)Cc2cccc(C)c2C1=O (stereo not drawn) the molecule record lists TGI as > 100 µM

For "O=C1/C(=C/c2ccc(Cl)cc2)CSc2ccccc21" the molecule record lists TGI as 9.35 µM

For "Oc1cccc(-c2nc3cc(F)ccc3s2)c1" the molecule record lists TGI as 51.4 µM

For CC1CCCC(CC(=O)O)(CC(=O)O)C1 (stereo not drawn) the molecule record lists TGI as > 100 µM

For "CCCCN=C(c1ccccc1)N1CCOCC1" the molecule record lists TGI as > 100 µM

For "COc1ccc(C(=O)COc2ccc(/C=C3\COc4ccc(OC)cc4C3=O)cc2)cc1" the molecule record lists TGI as 18.6 µM

For "Cn1c(COC(=O)Nc2ccccc2)c(COC(=O)Nc2ccccc2)c2ccc3cc(Cl)c(Cl)cc3c21" the molecule record lists TGI as 10.6 µM

For CN(C)c1ccc(C2SCC(=O)N2c2ccc(Oc3ccc(Cl)cc3)c(Cl)c2)cc1 (stereo not drawn) the molecule record lists TGI as 89.3 µM

For "Nc1ccc(S2(c3ccc(N)cc3)C=C(c3ccccc3)C(c3ccccc3)=C2)cc1" the molecule record lists TGI as > 100 µM

For CC1=CC(C/C(C)=C/COc2ccc3ccc(=O)oc3c2)OC1=O (stereo not drawn) the molecule record lists TGI as > 100 µM

For "COc1ccc(/C=C2\N=C(SC)NC2=O)cc1" the molecule record lists TGI as > 100 µM

For N#CC1=C(N)N(c2ccccc2)C(c2ccccc2)C1(C#N)C#N (stereo not drawn) the molecule record lists TGI as 31.7 µM

For "Clc1ccc(C=Nc2ccc3c(c2)Cc2ccccc2-3)c(Cl)c1" the molecule record lists TGI as > 100 µM

For "O=c1cccc(C#CC#CC2=CCCCC2)o1" the molecule record lists TGI as 13.4 µM

For "O=C1C(=Cc2ccccc2O)N=C(c2ccccc2)N1n1c(-c2ccccc2)nc2ccccc2c1=O" the molecule record lists TGI as 64.3 µM

For "ClCC[N+]12CC[N+](CCCl)(CC1)C2" the molecule record lists TGI as > 100 µM

For COc1ccc(C2OC(c3ccncc3)=NN2C)cc1OC (stereo not drawn) the molecule record lists TGI as > 100 µM

For "COc1ccc(/C=C/c2cc(OC)cc(=O)o2)cc1" the molecule record lists TGI as > 100 µM

For Nc1nc(F)nc2c1ncn2C1OC(CO)C(O)C1O (stereo not drawn) the molecule record lists TGI as > 100 µM

For "Nc1ccc(S(=O)(=O)Nc2nccs2)cc1" the molecule record lists TGI as > 100 µM

For CC1=C(C(=O)Nc2ccc(F)c(Cl)c2)C(c2cccc(O)c2)NC(=O)N1 (stereo not drawn) the molecule record lists TGI as > 100 µM

For "O=C1Nc2ccc(F)cc2/C1=C/c1ccc[nH]1" the molecule record lists TGI as > 25 µM

For Nc1ccn(C2OC(CO)C(O)C2O)c(=O)c1 (stereo not drawn) the molecule record lists TGI as > 625 µM
